B1: TPR t1 (parent)
chain: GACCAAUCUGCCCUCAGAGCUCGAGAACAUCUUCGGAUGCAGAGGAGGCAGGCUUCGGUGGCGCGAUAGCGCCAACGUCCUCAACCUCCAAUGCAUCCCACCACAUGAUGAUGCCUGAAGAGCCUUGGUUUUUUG

Variants of: B1
Experiment: polymerase ribozyme fitness, log enrichment relative to wild type (log ratio); higher = more active; in vitro selection for triplet polymerase activity
Label scheme, based on polymerase ribozyme fitness (log ratio): bin 0: < -4; bin 1: ≥ -4 and < -2; bin 2: ≥ -2

Asked: Dear colleague, I would appreciate it if you could identify the bin for GACCAAUCUGCCCUCAGAGCUCGAGAACAUCUUCGGAUGAAGAGUAGGCAGGCUUCGGUGGCGCGAUAGCGCCAACGUCCUCAACCUCCAAUGCAUCCCACCACAUGAUAAUGCCUGAAGAGCCUUGGUUUUUUG and reply at your convenience.
Given back: bin 0

Asked: Dear colleague, I would appreciate it if you could identify the bin for GACCAAUCUGCCCUCAGAGCUGGAGAACAUCUUCCGAUGCAGAGGAGGCAGGCUUCGGUGGCGUGAUAGCGCCAACGUCCUCAACCUCCAAUGCAUCCCACCACAUGAUGAUGCCUGAAGAGCCUUGGUUUUUUG and reply at your convenience.
Given back: bin 0

Asked: Dear colleague, I would appreciate it if you could identify the bin for GACCAACCUGCCCUCAGAGCUCGAGAACAUCUUCGGAUGCAGAGGAGGCAGGCUUCGGUGGCGCGAUAGCGCCCACGUCCUCAACCUCCAAUGCAUCCCACCACAUGAUGAUGCCUGAAGAGCCUUGGUUUUUUG and reply at your convenience.
Given back: bin 2

Asked: Dear colleague, I would appreciate it if you could identify the bin for GACCAAUCUGCCCUCAGAGCUCGAGAACAUCUUCGGAUGCACAGGAGGCAGGCUUCGGUGGCGCGAUAGCGCCAACGUCCUCAACCUGCAAUGCAUCCCACCACAUGAUGAUGCCUGAAGAGCCUUGGUUUUUUG and reply at your convenience.
Given back: bin 1

Asked: Dear colleague, I would appreciate it if you could identify the bin for GACCAAUCUGCCCGCAGAGCUCGAGAACAUCUUCGGAUGCAGAGGAGGCAGGCUUCGGUGGUGCGAUAGCGCCAACGCCCUCAACCUCCAAUGCAUCCCACCACAUGAUGAUGCCUGAAGAGCCUUGGUUUUUUG and reply at your convenience.
Given back: bin 1

Asked: Dear colleague, I would appreciate it if you could identify the bin for GACCAAUCUGCCCUCAGAGCUCGAGAACAUCUUCGGAUGCAGAGGAGGCAGGCUUCGGUGGCGCGCUAGCGCCAACGUCCUCAACCUCCAAUGCAUCCCACCACAUGAUGAUGCCUGAAGAGCCUUGGUUUUUUG and reply at your convenience.
Given back: bin 2

Asked: Dear colleague, I would appreciate it if you could identify the bin for GACCAAUCGGCCCUCAGAGCUCGAGAACAUCUUCGGAUGCAGAGGAGGCAGGCUUCGGUGGCGCGAUAGCGCCAACGUCCUCAACCUCCAAUGCAUCCCACCACAUGAUGAUGCCUGAAGAGGCUUGGUUUUUUG and reply at your convenience.
Given back: bin 2

Asked: Dear colleague, I would appreciate it if you could identify the bin for GACCAAUCUGCCCUCAGAGCUCGUGAACAUCUUCGGAUGCAGAGGAGGCAGGCUUCGGUGGCGCGAUAGCGCCAACGUCCUCAUCCUCCAAUGCAUCCCACCACAUGAUGAUGUCUGAAGAACCUUGGUUUCUUG and reply at your convenience.
Given back: bin 0

Asked: Dear colleague, I would appreciate it if you could identify the bin for GACCAAUCUGCCCUCAGAGCUCGAGAACAUCUUCGGAUGCAGAGUAGGCAGGCUUCGGUGGCGCGAUAGCGCCAACGUCCUCAACCUCCAAUUCAUCCCACCACAUGAUGAUGCCUGAAAAGCCUUGGUUUUUUG and reply at your convenience.
Given back: bin 2

Asked: Dear colleague, I would appreciate it if you could identify the bin for GACCAAUCUGCCCUCAGAGCUCGAGAACAUCUUCGGAUGUAGAGGAGGCAGGCUUCGGUGGCGCGAUAGCGCCAACGUCCUCAACCUCCAAUGCAUCCCACCACAUGAUGAUGUCUGAAGAGCCUUGGUUUUUUG and reply at your convenience.
Given back: bin 1

Asked: Dear colleague, I would appreciate it if you could identify the bin for GACCAAUCUGCCCUCAGAGCUCGAGAACAUCUUCGGAUGCAGAGGAGGCAGGCUUCGGUCGCGCGAUAGCGCCAACGUCCUAAACCUCCAAUGCAUCCCACCACAUGAUGAUGCCUGAAGAGCCUUGGUUUUUUG and reply at your convenience.
Given back: bin 2

Asked: Dear colleague, I would appreciate it if you could identify the bin for GACCAAUCUGCCCUCAGAGCUCGAGAACACCUUCGGAUGCAGAGGAGGCAGGCUUUGGUGGCGCGAUAGCGCCAACGUCCUCAACCUCCAAUGCAUCCCACCACAUGAUGAUGCCUGAAGAGCCUUGGUUUUUUG and reply at your convenience.
Given back: bin 1

Asked: Dear colleague, I would appreciate it if you could identify the bin for GACCAAUCUGCCCUCAGAGUUCGAGAACAUCUUCGGAUGCAGAGGAGGCAGGCUUCGGUGGCGCGAUAGCGCUAACGUCCUCAACCUCCAAUGCAUCCCACCACAUGAUGAUGCCUGAAGAGCCUUGGUUUUUUG and reply at your convenience.
Given back: bin 2

Asked: Dear colleague, I would appreciate it if you could identify the bin for GACCAAUCUGCCCUCAGAGCUCGAGAACAUCUUCGGAUGCAGAGGAGGGUGGCUUCGGUGGCGCGAUAGCGACAACGUCCUCAACCUCCAAUGAAUCCCACCACAUGAUGAUGCCUGAAGAGCCUUGGUUUUUUG and reply at your convenience.
Given back: bin 1

Asked: Dear colleague, I would appreciate it if you could identify the bin for GACCAAUCUGCCCUCAGAGCUCGAGAACAUCUUCGGAUGCAGAGGAGGCAGGCUUCGGUGGCGCGAUGGCGCCAACGUCCUCAACUUCCAAUGCAUCCCACCACAUGAUGAUGCCUGAAGAGCCUUGGUUUUUUG and reply at your convenience.
Given back: bin 1

Asked: Dear colleague, I would appreciate it if you could identify the bin for GACCAGUCUGGCCUCACAGCUCGAGAACAUCUUCGCAUGCAGAGGAGGCAGGCUUCGGUGGCGCGAUAGCGCCAACGUCCUCAACCUCCAAUGCAUUCCACCACAUGAUGAUGCCUGAAGAGCCUUGGUUUUUUG and reply at your convenience.
Given back: bin 0

Asked: Dear colleague, I would appreciate it if you could identify the bin for GACCAAUCUGCCCUCAGAGCUCGAGAACAUCUUCGGAUGCCGAGGAGGCAGGCUUCGGUGGCCCGAUAGCGCCAACGUCCUCAACCUCCCAUGCAUCCCACCACAUGAUGAUGCCUGAAGAGGCUUGCUUUUUUG and reply at your convenience.
Given back: bin 1

Asked: Dear colleague, I would appreciate it if you could identify the bin for GACCAAUCUGCUCUCAGAGCUCGAGAACAUCUUCGGAUGCAGAGGAGGCAGGCUUCGGUGGCGCGAUAGCGCCAACGUCCUCAACCUCCAAUGCAUCCCACCACAUGAUGAUGCCUGAAGAGCCUUGGUUUAUUG and reply at your convenience.
Given back: bin 2

Asked: Dear colleague, I would appreciate it if you could identify the bin for GACCAAUCUGCCCUCAGAGCUCGAGAACAUCUUCGGAUGCAGAGGAGGGAGGCUUCGGGGGGGCGAUAGCGUCAACGUCCUCAACCUCCAAUGCAUCCCACCACAUGAUGAUGCCUGAAGAGCCUUGGUUUUUUG and reply at your convenience.
Given back: bin 0

Asked: Dear colleague, I would appreciate it if you could identify the bin for GACCAAUCUGCCCUCAGAGCUCGAGAACAUCUUCGGAGGCAGAGGAGGCAGUCUUCGGUGGCGCGAUAGCGCCAACGUCCUCAACCUCCAAUGCAUCCCACCACAUGAUGAUGCCUGAAGAGCCUUGGUUUUUUG and reply at your convenience.
Given back: bin 1
